System: luciferase-encoding HCV replicon
Assay: HCV replicon Renilla luciferase antiviral assay
Assay type: cell-based, hepatitis C virus
Settings: Hepatitis C virus, 72 h, three days post drug addition
MEASURE_NAME: EC50 (nM)
// units = nM; emit number, no label

Look over these answered cases.
MOLECULE	READING
CNC(=O)c1c(-c2ccc(F)cc2)oc2cc(N(CCO)S(C)(=O)=O)c(C3CC3)cc12 [HCV-796]	15
Nc1ccn([C@@H]2O[C@H](CO)[C@@H](O)C2(F)F)c(=O)n1 [Gemcitabine, gemcitabine]	12

Next, consider the following molecule.
-- ask I would be grateful if you could share the reported EC50 for COc1ccc(C[C@H](N)C(=O)N[C@H]2[C@@H](O)[C@H](n3cnc4c(N(C)C)ncnc43)O[C@@H]2CO)cc1 [Puromycin, puromycin] .
-- reply 290

* * *

Experiment: Cell number by count of Hoechst-stained nuclei
Type: cell-based
Conditions: genotype 1a HCV replicon cells; Hoechst-stained nuclei, three days
The molecules listed here are annotated with their CC50 at 3 days.
Lab book: enter the figure in nM, no units written.

MOLECULE	CC50 at 3 days / nM
Nc1ccn([C@@H]2O[C@H](CO)[C@@H](O)C2(F)F)c(=O)n1 [Gemcitabine, gemcitabine]	4

Let us move to another entry and its CC50 at 3 days.
-- ask // CC50 at 3 days lookup, key: COc1ccc(C[C@H](N)C(=O)N[C@H]2[C@@H](O)[C@H](n3cnc4c(N(C)C)ncnc43)O[C@@H]2CO)cc1 [Puromycin, puromycin]
-- reply 52

* * *

Tested on: HCV replicon cells
Assay: CellTiter-Glo intracellular ATP (cell viability)
Details: read-out: CC50 Intracellular ATP; CellTiter-Glo, three day assay
Procedure: Renilla luciferase replicon cell assays were performed as previously described. Calcein AM (Anaspec, Fremont, CA) and CellTiter-Glo (Promega, Madison, WI) readouts were performed as instructed by the manufacturer.
MEASURE_NAME: CC50
Write the numeric value and follow it with the unit.

-- ask Name the recorded CC50 for "C=CCNC1=C2C[C@@H](C)C[C@H](OC)[C@H](O)[C@@H](C)/C=C(\C)[C@H](OC(N)=O)[C@@H](OC)/C=C\C=C(/C)C(=O)NC(=CC1=O)C2=O" .
-- reply 38 nM
